I'd appreciate it if you could supply kon values for the items below.
# System: T1, biotinylated CRH (human and mouse, not fully specified; biotinylated, position not stated)
# T1 construct: also called Biotin-CRH; biotin-labeled CRH
# T1 peptide: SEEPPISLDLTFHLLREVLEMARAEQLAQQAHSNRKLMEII
# Test summary: Octet BLI, biotinylated CRH on SA sensor
The reply should be a number in M⁻¹ s⁻¹, with the unit left off.

Lookup result for PR006145 (antibody, human IgG1, kappa, V domains shown, PTM-removal variant of PR004290) VH: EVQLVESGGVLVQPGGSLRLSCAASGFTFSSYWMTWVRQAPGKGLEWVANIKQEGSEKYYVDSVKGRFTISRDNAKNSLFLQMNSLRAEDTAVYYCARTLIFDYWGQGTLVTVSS VL: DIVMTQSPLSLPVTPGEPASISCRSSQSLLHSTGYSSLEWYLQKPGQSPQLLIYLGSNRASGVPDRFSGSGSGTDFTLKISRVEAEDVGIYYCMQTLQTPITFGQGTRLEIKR ; measured kon: 222000

Consider PR005658 (antibody, human IgG1, kappa, V domains shown, PTM-removal variant of PR004290) VH: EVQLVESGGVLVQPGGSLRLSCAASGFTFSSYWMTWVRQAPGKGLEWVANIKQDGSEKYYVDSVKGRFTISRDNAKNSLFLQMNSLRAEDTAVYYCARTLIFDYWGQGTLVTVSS VL: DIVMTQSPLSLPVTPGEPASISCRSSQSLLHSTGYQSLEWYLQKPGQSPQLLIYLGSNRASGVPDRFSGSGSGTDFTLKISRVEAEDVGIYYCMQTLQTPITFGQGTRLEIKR . Its measured kon is 509000

The value of kon measured for the binder PR302050 (antibody, human IgG1, kappa, V domains shown, Humanized variant of PR301777) VH: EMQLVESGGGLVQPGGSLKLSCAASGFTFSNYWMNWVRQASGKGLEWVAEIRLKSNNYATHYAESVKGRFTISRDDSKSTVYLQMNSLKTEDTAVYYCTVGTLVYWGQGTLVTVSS VL: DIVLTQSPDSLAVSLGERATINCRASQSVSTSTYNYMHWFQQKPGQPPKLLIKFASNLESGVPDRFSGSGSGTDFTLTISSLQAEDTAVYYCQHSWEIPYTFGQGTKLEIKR turned out to be 470000
